# Test: Half life in ICR mouse at 10 mg/kg, po via gavage measured for 0.083 to 24 hrs by LC-MS analysis
# Type: ADME, organism-based
# Experimental Conditions: in vivo, time 0.083-24 hrs
Quantity Name: half-life (h)

CCOc1ncc2cc(-c3ccc4nc5n(c4c3)CCN(C)C5)c(=O)n(-c3ccc(OC(F)F)cc3)c2n1 : 3.3
CCOc1ccc2c(=O)n(-c3ccc4nc5n(c4c3)CCN(C)C5)c(=O)n(-c3ccc(OC(F)F)cc3)c2n1 : 2.98
CCNc1ncc2cc(-c3ccc4nc5n(c4c3)CCN(C)C5)c(=O)n(-c3ccc(OC(F)F)cc3)c2n1 : 2.9
CN1CCn2c(nc3ccc(-c4cc5cnc(C6CC6)nc5n(-c5ccc(OC(F)F)cc5)c4=O)cc32)C1 : 4

----------
# Test: AUC in ICR mouse at 1 mg/kg, iv measured for 0.083 to 24 hrs by LC-MS analysis
# Assay type: ADME, organism-based
# Set-up: time upper 24 hrs, time lower 0.083 hrs, dose 1 mg/kg, route iv
# Experimental Conditions: in vivo
Quantity Name: AUC (ng·h/mL)
Give just the number in ng·h/mL; leave the unit off.

Entry `CCOc1ncc2cc(-c3ccc4nc5n(c4c3)CCN(C)C5)c(=O)n(-c3ccc(OC(F)F)cc3)c2n1` ; AUC = 990

----------
# Test: MRT in ICR mouse at 10 mg/kg, po via gavage measured for 0.083 to 24 hrs by LC-MS analysis
# Assay type: ADME, organism-based
# Experimental Conditions: in vivo, time 0.083-24 hrs
Quantity Name: MRT (h)
Give just the number in h; leave the unit off.

Entry `CCOc1ccc2c(=O)n(-c3ccc4nc5n(c4c3)CCN(C)C5)c(=O)n(-c3ccc(OC(F)F)cc3)c2n1` ; MRT = 4.71

----------
# Target Desc: Cytochrome P450 3A4 (Homo sapiens)
# Sequence (P08684 whole entry): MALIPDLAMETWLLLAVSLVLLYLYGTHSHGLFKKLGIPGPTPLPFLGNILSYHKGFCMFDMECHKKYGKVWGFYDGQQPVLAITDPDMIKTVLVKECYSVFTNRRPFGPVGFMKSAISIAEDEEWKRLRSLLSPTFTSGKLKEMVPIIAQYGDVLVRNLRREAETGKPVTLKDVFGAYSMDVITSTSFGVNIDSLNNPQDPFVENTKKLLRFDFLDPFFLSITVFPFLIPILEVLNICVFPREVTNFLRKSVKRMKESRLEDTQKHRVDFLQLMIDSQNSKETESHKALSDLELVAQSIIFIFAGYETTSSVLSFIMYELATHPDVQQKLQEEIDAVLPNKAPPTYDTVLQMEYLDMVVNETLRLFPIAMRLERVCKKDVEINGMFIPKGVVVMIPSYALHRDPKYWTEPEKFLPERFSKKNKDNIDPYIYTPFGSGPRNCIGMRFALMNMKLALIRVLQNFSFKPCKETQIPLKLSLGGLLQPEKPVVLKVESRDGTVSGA
Quantity Name: IC50 (µM)
Give just the number in µM; leave the unit off.

Here `CCOc1ccc2c(=O)n(-c3ccc4nc5n(c4c3)CCN(C)C5)c(=O)n(-c3ccc(OC(F)F)cc3)c2n1` was tested on Cytochrome P450 3A4 (Homo sapiens), and its IC50 came to 36.9

----------
# Test: Tmax in ICR mouse at 10 mg/kg, po via gavage measured for 0.083 to 24 hrs by LC-MS analysis
# Format: ADME, organism-based
# Experimental Conditions: in vivo, time 0.083-24 hrs
Quantity Name: Tmax (min)

CCOc1ccc2c(=O)n(-c3ccc4nc5n(c4c3)CCN(C)C5)c(=O)n(-c3ccc(OC(F)F)cc3)c2n1 : 40.2

I = CN1CCn2c(nc3ccc(-c4cc5cnc(C6CC6)nc5n(-c5ccc(OC(F)F)cc5)c4=O)cc32)C1
II = CCOc1ncc2cc(-c3ccc4nc5n(c4c3)CCN(C)C5)c(=O)n(-c3ccc(OC(F)F)cc3)c2n1
III = CCNc1ncc2cc(-c3ccc4nc5n(c4c3)CCN(C)C5)c(=O)n(-c3ccc(OC(F)F)cc3)c2n1
Rank order required: Tmax, descending. Respond with the label ranking, as requested. II, I, III
(II: 49.8 min, I: 30 min, III: 19.8 min)

----------
# Test: Volume of distribution at steady state in ICR mouse at 1 mg/kg, iv measured for 0.083 to 24 hrs by LC-MS analysis
# Format: ADME, organism-based
# Experimental Conditions: in vivo, time 0.083-24 hrs, read-out: Vdss
Quantity Name: Vd (L/kg)
Give just the number in L/kg; leave the unit off.

Entry `CCOc1ncc2cc(-c3ccc4nc5n(c4c3)CCN(C)C5)c(=O)n(-c3ccc(OC(F)F)cc3)c2n1` ; Vd = 2.18

----------
# Test: Cmax in ICR mouse at 10 mg/kg, po via gavage measured for 0.083 to 24 hrs by LC-MS analysis
# Type: ADME, organism-based
# Parameters: time upper 24 hrs, dose 10 mg/kg, time lower 0.083 hrs, route po
# Experimental Conditions: in vivo
Quantity Name: Cmax (ng/mL)

Below: 2 compounds and their reported Cmax.
CCNc1ncc2cc(-c3ccc4nc5n(c4c3)CCN(C)C5)c(=O)n(-c3ccc(OC(F)F)cc3)c2n1 : 1050
CN1CCn2c(nc3ccc(-c4cc5cnc(C6CC6)nc5n(-c5ccc(OC(F)F)cc5)c4=O)cc32)C1 : 1740

1 = CCOc1ncc2cc(-c3ccc4nc5n(c4c3)CCN(C)C5)c(=O)n(-c3ccc(OC(F)F)cc3)c2n1
2 = CCOc1ccc2c(=O)n(-c3ccc4nc5n(c4c3)CCN(C)C5)c(=O)n(-c3ccc(OC(F)F)cc3)c2n1
Between these two entries, 1 and 2 , state which has the higher Cmax. Response format: the label of the selected entry. 2
(2: 6730 ng/mL, 1: 2300 ng/mL)

----------
# Test: AUC in ICR mouse at 10 mg/kg, po via gavage measured for 0.083 to 24 hrs by LC-MS analysis
# Assay type: ADME, organism-based
# Design: dose 10 mg/kg, time upper 24 hrs, time lower 0.083 hrs, route po
# Experimental Conditions: in vivo
Quantity Name: AUC (ng·h/mL)

CN1CCn2c(nc3ccc(-c4cc5cnc(C6CC6)nc5n(-c5ccc(OC(F)F)cc5)c4=O)cc32)C1 : 11400

a = CCNc1ncc2cc(-c3ccc4nc5n(c4c3)CCN(C)C5)c(=O)n(-c3ccc(OC(F)F)cc3)c2n1
b = CCOc1ccc2c(=O)n(-c3ccc4nc5n(c4c3)CCN(C)C5)c(=O)n(-c3ccc(OC(F)F)cc3)c2n1
c = CCOc1ncc2cc(-c3ccc4nc5n(c4c3)CCN(C)C5)c(=O)n(-c3ccc(OC(F)F)cc3)c2n1
Endpoint returns the given compounds ordered by ascending AUC. Respond with the label ranking, as requested. a, c, b
(a: 3200 ng·h/mL, c: 11500 ng·h/mL, b: 41200 ng·h/mL)

----------
# Target Desc: S-adenosylmethionine synthase isoform type-2 (Homo sapiens)
# Test: Inhibition of recombinant MAT2A (unknown origin) expressed in baculovirus infected Sf9 insect cells using L-methionine as substrate preincubated for 15 mins followed by substrate addition measured after 60 mins by Kinase-Glo Luminescent assay
Quantity Name: IC50 (nM)

Below: 4 compounds and their reported IC50.
CCOc1ncc2cc(-c3ccc4c(c3)nc3n4CCN(C)C3)c(=O)n(-c3ccc(OC(F)F)cc3)c2n1 : 394
CN1CCn2c(nc3ccc(-c4cc5cnc(OCC(F)F)nc5n(-c5ccc(OC(F)F)cc5)c4=O)cc32)C1 : 37
CCOc1ccc2c(=O)n(-c3ccc4nn5c(c4c3)CN(C)CC5)c(=O)n(-c3ccc(OC(F)F)cc3)c2n1 : 28
COc1ncc2cc(-c3ccc4nc5n(c4c3)CCN(C)C5)c(=O)n(-c3ccc(OC(F)F)cc3)c2n1 : 64

P = CCOc1ncc2cc(-c3ccc4nc5n(c4c3)CCN(CC3COC3)C5)c(=O)n(-c3ccc(OC(F)F)cc3)c2n1
Q = CCNc1ncc2cc(-c3ccc4nc5n(c4c3)CCN(C)C5)c(=O)n(-c3ccc(OC(F)F)cc3)c2n1
Between these two entries, P and Q , state which has the higher IC50. Response format: the label of the selected entry. P

A = CN1CCn2c(nc3ccc(-c4cc5cnc(C6CC6)nc5n(-c5ccc(OC(F)F)cc5)c4=O)cc32)C1
B = CCOc1ncc2cc(-c3ccc4nn5c(c4c3)C(=O)N(C)CC5)c(=O)n(-c3ccc(OC(F)F)cc3)c2n1
Between these two entries, A and B , state which has the higher IC50. Response format: the label of the selected entry. B

----------
# Target Desc: S-adenosylmethionine synthase isoform type-2 (Homo sapiens, UniProt P31153)
# Sequence (P31153 whole entry, canonical isoform): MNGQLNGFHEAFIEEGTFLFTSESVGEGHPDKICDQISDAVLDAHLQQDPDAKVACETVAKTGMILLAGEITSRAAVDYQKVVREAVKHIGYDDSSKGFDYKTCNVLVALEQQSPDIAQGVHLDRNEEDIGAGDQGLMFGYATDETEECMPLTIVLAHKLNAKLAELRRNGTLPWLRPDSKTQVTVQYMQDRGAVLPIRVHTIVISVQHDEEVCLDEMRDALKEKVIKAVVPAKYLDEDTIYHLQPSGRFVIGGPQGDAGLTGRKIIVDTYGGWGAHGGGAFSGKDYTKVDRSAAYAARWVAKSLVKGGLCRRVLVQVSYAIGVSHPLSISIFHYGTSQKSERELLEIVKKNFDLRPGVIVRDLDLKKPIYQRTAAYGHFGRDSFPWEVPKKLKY
# Test: Inhibition of recombinant MAT2A (unknown origin) expressed in baculovirus infected Sf9 insect cells using L-methionine as substrate preincubated for 15 mins followed by substrate addition measured after 60 mins by Kinase-Glo Luminescent assay
Quantity Name: IC50 (nM)

Below: 6 compounds and their reported IC50.
Cn1cc2cc(-n3cc4cnc(NCC(F)(F)F)nc4c(-c4ccc(Cl)cc4)c3=O)ccc2n1 : 32
CCOc1ncc2cc(-c3ccc4nn5c(c4c3)CN(C)CC5)c(=O)n(-c3ccc(OC(F)F)cc3)c2n1 : 20
CCOc1ncc2cc(-c3ccc4nc5n(c4c3)CCN(C)C5)c(=O)n(-c3ccc(OC(F)F)cc3)c2n1 : 18
CCOc1ccc2cc(-c3ccc4c(c3)C3(CC3)CO4)c(=O)n(-c3ccc(OC(F)F)cc3)c2c1 : 63
CCOc1ccc2cc(-c3ccc4nn(C)cc4c3)c(=O)n(-c3ccc(OC(F)F)cc3)c2c1 : 34
CCOc1ccc2c(=O)n(-c3ccc4nc5n(c4c3)CCN(C)C5)c(=O)n(-c3ccc(OC(F)F)cc3)c2n1 : 26

P = CCOc1ncc2cc(-c3ccc4nc5n(c4c3)CCN(C)C5)c(=O)n(-c3ccc(Cl)cc3)c2n1
Q = CC(C)Oc1ncc2cc(-c3ccc4nc5n(c4c3)CCN(C)C5)c(=O)n(-c3ccc(OC(F)F)cc3)c2n1
R = CN1CCn2c(nc3ccc(-c4cc5cnc(N6CCC6)nc5n(-c5ccc(OC(F)F)cc5)c4=O)cc32)C1
S = CCOc1ncc2cc(-c3ccc4nc5n(c4c3)CCN(CCOC)C5)c(=O)n(-c3ccc(OC(F)F)cc3)c2n1
T = CCOc1ncc2cc(-c3ccc4nc5n(c4c3)CCN(C)C5)c(=O)n(-c3ccc(OC)nc3)c2n1
Rank order required: IC50, descending. Respond with the label ranking, as requested. R, T, P, Q, S

A = CCOc1ncc2cc(-c3ccc4nc5n(c4c3)CCN(C(C)=O)C5)c(=O)n(-c3ccc(OC(F)F)cc3)c2n1
B = CCOc1ncc2cc(-c3ccc4nc5n(c4c3)CCN(C(C)C)C5)c(=O)n(-c3ccc(OC(F)F)cc3)c2n1
C = CN1CCn2c(nc3ccc(-c4cc5cnc(NCC(F)(F)F)nc5n(-c5ccc(OC(F)F)cc5)c4=O)cc32)C1
Endpoint returns the given compounds ordered by ascending IC50. Respond with the label ranking, as requested. B, C, A
(B: 17 nM, C: 34 nM, A: 52 nM)

A = CCOc1ncc2cc(-c3cc4c5c(c3)ncn5CCO4)c(=O)n(-c3ccc(OC(F)F)cc3)c2n1
B = CCOc1ncc2cc(-c3ccc4nc5n(c4c3)CCN(CC#N)C5)c(=O)n(-c3ccc(OC(F)F)cc3)c2n1
C = CCOc1ncc2nc(-c3ccc4nn(C)cc4c3)c(=O)n(-c3ccc(OC(F)F)cc3)c2n1
Endpoint returns the given compounds ordered by ascending IC50. Respond with the label ranking, as requested. B, C, A
(B: 20 nM, C: 39 nM, A: 72 nM)

Data credit: ChEMBL document CHEMBL5380836
